Where do these numbers come from? They come from patent US20240400654A1.

target: HRgpA-6H (Porphyromonas gingivalis) (UniProt P28784); experiment: ELISA, coated HRgpA-6H
Please respond with reported OD450 nm for every item in the list.
A bare number is all that is needed in reply.

(Q) Requested field: OD450 nm. Item: KB001 mouse Fab VH N100E (Fab, V domains shown) VH: EVQLKQSGPGLVAPSQSLSITCTVSGFSLSIYSVHWVRQPPGKGLEWLGMIWGGGSSDYNSALKSRLSISKDNSKSQVFLKMNSLQTDDTAMYYCARNGEFYAMDYWGQGTSVTVSS VL: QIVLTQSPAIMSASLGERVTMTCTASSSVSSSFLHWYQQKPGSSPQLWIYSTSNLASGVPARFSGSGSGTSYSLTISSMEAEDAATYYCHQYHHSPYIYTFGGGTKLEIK
(A) 0.886

(Q) Quick one: KB001 mouse Fab VH L29V (Fab, V domains shown) VH: EVQLKQSGPGLVAPSQSLSITCTVSGFSVSIYSVHWVRQPPGKGLEWLGMIWGGGSSDYNSALKSRLSISKDNSKSQVFLKMNSLQTDDTAMYYCARNGNFYAMDYWGQGTSVTVSS VL: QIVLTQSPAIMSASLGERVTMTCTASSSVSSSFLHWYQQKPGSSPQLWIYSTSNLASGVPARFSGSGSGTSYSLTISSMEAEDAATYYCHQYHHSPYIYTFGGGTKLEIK
(A) 0.446

(Q) Do the same for KB001 mouse Fab VH S61L (Fab, V domains shown) VH: EVQLKQSGPGLVAPSQSLSITCTVSGFSLSIYSVHWVRQPPGKGLEWLGMIWGGGSSDYNLALKSRLSISKDNSKSQVFLKMNSLQTDDTAMYYCARNGNFYAMDYWGQGTSVTVSS VL: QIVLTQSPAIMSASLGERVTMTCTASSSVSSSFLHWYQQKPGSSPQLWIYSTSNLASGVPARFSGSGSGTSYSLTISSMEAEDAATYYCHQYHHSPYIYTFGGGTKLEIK please
(A) 0.448
